Experiment: qHTS profiling of the MIPE4 collection as inhibitors of Plasmodium falciparum (DD2) proliferation (Rep 2) (AID 743346)
Settings: P. falciparum Dd2 in erythrocytes, SYBR Green DNA, 72 h; at 28.5 µM unless noted
parasite growth, % of control (lower = inhibition) values by entry
recordedMetric: parasite growth, % of control (lower = inhibition) (%)

1) C=C1C(=CC=C2CCCC3(C)[C@@H]([C@H](C)C=CC=CC(O)(CC)CC)CC[C@@H]23)C[C@@H](O)C[C@@H]1O (stereo partly drawn)
12.7
2) COc1cccc2nc(-c3cccs3)nc(NN3C(=O)C=C(C)C3=O)c12
18.1
3) NC(=O)Nc1cc(-c2cccc(F)c2)sc1C(=O)N[C@H]1CCCNC1
15.5
